test: qHTS of pediatric cancer cell lines to identify multiple opportunities for drug repurposing: Primary screen for BT-37 cells (AID 1347094); further: potency means the concentration at half of the fitted maximal effect
condition: BT-37 viability, CellTiter-Glo luminescence, 48 h; series mostly up to 57.3 µM
Protocol: Drug repurposing or repositioning has been offered as a strategy for drug development in oncology programs. This approach has special potential for childhood cancers and other rare or orphan diseases, where the expected return on new drug development has been a disincentive to pharmaceuticals. […] We employed a titration-based paradigm (quantitative high-throughput screening or qHTS), where all compounds were tested at multiple concentrations for their effect on cell viability. […]
Inconclusive results are not listed. Calls of active or inactive are those of the source. The call rests on the fitted dose curve; in most records, active means well fitted cell-killing curve with a large enough effect; inconclusive means small, poorly fitted or top-dose-only effect; inactive means flat fitted curve, though single readings scatter.
assayMetric: Potency

Use the examples below as a reference point.
- Cc1cnc(-c2cnc(NCCNc3ccc(C#N)cn3)nc2-c2ccc(Cl)cc2Cl)[nH]1: inactive
- Nc1ccccc1NC(=O)c1ccc(CNc2nccc(-c3cccnc3)n2)cc1: 3.06 µM (active)
- Nc1nccc(Oc2ccc(NC(=O)c3c[nH]cc(-c4ccc(F)cc4)c3=O)cc2F)c1Cl: 2.17 µM (active)
- COc1ccc2c(c1)CC[C@@H](CN(C)CC(=O)O)[C@H]2c1ccccc1: 6.11 µM (active)
- Cn1c2ccccc2c2c3c(c4c5ccccc5n(CCC#N)c4c21)CNC3=O: 7.69 µM (active)

For each entry beneath this line, provide reported Potency.
1. CC1COC2(CCN(c3nc(=O)c4cc(C(F)(F)F)cc([N+](=O)[O-])c4s3)CC2)O1 (stereo not given)
2. Cc1cn2cc(C(=O)N(C)CCO)cc(N[C@@H]3CCOc4cccc(C)c43)c2n1
3. CS(=O)(=O)c1ccc(-c2cnc(N)c(C(=O)Nc3ccccc3)n2)cc1
4. CC(C)(C)c1cc(C(C)(C)C)c(NC(=O)c2c[nH]c3ccccc3c2=O)cc1O
5. COc1cccc2nc(-c3cccs3)nc(NN3C(=O)C=C(C)C3=O)c12

inactive
inactive
inactive
inactive
0.863 µM (active)
